Could you please report measured Percent Effect for the items listed next?
target: Aspartate--tRNA(Asp/Asn) ligase (Mycobacterium tuberculosis (strain ATCC 25618 / H37Rv)); assay: Assay for Asp RNA synthetase-1 from Mycobacterium tuberculosis; type: functional; set-up: scale not given: in the data most compounds retested in dose-response had high values; conditions: 30 µM
Give the number; % is assumed, so skip it.

Record lookup: for Aspartate--tRNA(Asp/Asn) ligase (Mycobacterium tuberculosis (strain ATCC 25618 / H37Rv)), what Percent Effect belongs to O=S(=O)(c1ccccc1)N1CCCCC1c1cc[nH]n1 (stereo unspecified) ?
4.1

// query: `CCn1nc2c(cc1=O)CN(Cc1nc(CCOC)no1)CC2`
2.21

// query: `COc1ccc2nnc(CCCC(=O)NCCC3=CCCCC3)n2n1`
0.319

// query: COCCCN1CCCN(C(C)C(=O)Nc2cccc(I)c2)CC1 (stereo unspecified)
0.0704

// query: `Cc1nc(-c2ccccc2)n(CC(=O)NCC(C)C)n1`
-3.61

// query: CC(C)=CCN1CCOC(Cn2nc(C)cc2C)C1 (stereo unspecified)
-3.08

// query: `O=C(NCC1CC1)[C@H]1C[C@@H]2[C@@H](C1)OCCN2Cc1cccnc1`
-0.291

// query: `Cn1cc(C(=O)NCc2cn3c(n2)CN(CC2CCOCC2)CC3)cn1`
-2.89

// query: O=C1CC(c2ccc(C(=O)O)cc2)c2ncn(-c3cccc(F)c3)c2N1 (stereo unspecified)
7.81

// query: `COCCN1C[C@@H]2[C@@H](OC)CCN(Cc3cccc(C)n3)[C@@H]2C1`
-0.137

// query: COc1ccc(C2C3=C(COC3=O)Nc3[nH]nc(C)c32)cc1OC (stereo unspecified)
-2.61

Data origin, for the record: ChEMBL document CHEMBL3988442
